Recorded Population Mitotic Cells (%) for the following compounds
System: HEK-293T
experimentalProtocol: Multiplex assay against HEK293T
Assay type: toxicity, cell-based
details: human, 24 h, 1 µM, compound concentration 1 uM, replicate 1

{"columns": ["compound", "unitAnnotation", "Population Mitotic Cells (%)"],
 "data": [
  ["Cc1[nH]c(/C=C2\\C(=O)Nc3ccc(S(=O)(=O)N(C)c4cccc(Cl)c4)cc32)c(C)c1C(=O)N1CCN(C)CC1", "%", 44],
  ["c1cn2cc(-c3ccc4cn[nH]c4c3)nc(Nc3ccc(N4CCOCC4)cc3)c2n1", "%", 56],
  ["Cc1c(-c2ccc(O)cc2)n(Cc2ccc(OCCN3CCCCCC3)cc2)c2ccc(O)cc12", "%", 55],
  ["CN(C)CC#Cc1ccc(OCCCc2sc(N3CCc4cccc(C(=O)Nc5nc6ccccc6s5)c4C3)nc2C(=O)O)c(F)c1", "%", 51],
  ["C=CC(=O)Nc1cccc(C(=O)Nc2ccc(Nc3cc(-c4[nH]c(SC)nc4C)ccn3)cc2)c1", "%", 51],
  ["CNc1nc(NCc2ccc(NS(C)(=O)=O)cc2Cl)cc(-c2ccccn2)n1", "%", 45],
  ["COc1cc(-n2cnc3cc(-c4ccc(Cl)cc4)sc3c2=O)ccc1OCCN1CCCC1", "%", 27],
  ["C[C@@]1(C(=O)Nc2ccc(F)nc2)CCCN1c1nc(Nc2cc(C3CC3)n[nH]2)c2cccn2n1", "%", 74],
  ["OC1(c2ccc(Cl)cc2)CCN(Cc2c[nH]c3ccccc23)CC1", "%", 49],
  ["CC(C)(O)CNc1ncc(-c2ccnc(Nc3ccnc(Cl)c3)n2)c(CC2CC2)n1", "%", 50],
  ["Cc1nc(-c2cn3c(n2)-c2ccc(-c4cnn(C(C)(C)C(N)=O)c4)cc2OCC3)n(C(C)C)n1", "%", 75],
  ["COc1ncc(-c2ccc3nccc(-c4ccnnc4)c3c2)cc1NS(=O)(=O)c1ccc(F)cc1F", "%", 52],
  ["Cl.N#Cc1ccc2[nH]cc(CCCCN3CCN(c4ccc5oc(C(N)=O)cc5c4)CC3)c2c1 [VILAZODONE HYDROCHLORIDE]", "%", 47],
  ["CN1CCCC(n2nc(Cc3ccc(Cl)cc3)c3ccccc3c2=O)CC1.Cl (centres undefined) [AZELASTINE HYDROCHLORIDE]", "%", 43],
  ["O=C1NCN(c2ccccc2)C12CCN(CCCOc1ccc(F)cc1)CC2 [SPIRAMIDE]", "%", 50],
  ["Cn1cc(-c2[nH]c3cc(NC(=O)[C@H](N)C4CCCCC4)cc4c3c2C=NNC4=O)cn1", "%", 58],
  ["CN1CCN(c2ccc(OC(F)(F)F)c(Nc3ncc4c(n3)-c3c(c(C(N)=O)nn3CCO)CC4)c2)CC1", "%", 39],
  ["CN(C)C(=O)/C(C#N)=C/c1ccc(-c2nc3cnc4[nH]ccc4c3n2C2CCCCC2)o1", "%", 53],
  ["Cc1nc(-c2ccc(-c3ccc(C(=O)N4CCc5cc6c(cc54)C4(CCN(C)CC4)CO6)cc3)c(C)c2)no1", "%", 32],
  ["CC[C@H](C)C(=O)O[C@H]1C[C@@H](C)C=C2C=C[C@H](C)[C@H](CC[C@@H]3C[C@@H](O)CC(=O)O3)[C@H]21", "%", 50],
  ["CN1CCN(CCOc2cc(OC3CCOCC3)c3c(Nc4c(Cl)ccc5c4OCO5)ncnc3c2)CC1", "%", 45],
  ["Cc1csc2c(N[C@@H](C)CN3CCN(S(=O)(=O)c4ccc(Cl)c(Cl)c4)CC3)ncnc12", "%", 42],
  ["Cc1nc(Nc2n[nH]c3c2CN(C(=O)N[C@H](CN(C)C)c2ccccc2)C3(C)C)c2sccc2n1", "%", 76],
  ["NC(=O)Nc1cc(-c2cccc(F)c2)sc1C(=O)N[C@H]1CCCNC1", "%", 80],
  ["CN(C)C(=O)N[C@H]1CC[C@H](CCN2CCN(c3cccc(Cl)c3Cl)CC2)CC1.Cl [CARIPRAZINE HYDROCHLORIDE]", "%", 53],
  ["C=CC(=O)Nc1ccc2ncnc(Nc3ccc(OCc4cccc(F)c4)c(Cl)c3)c2c1.Cc1ccc(S(=O)(=O)O)cc1", "%", 54],
  ["COc1cccc([C@@H](C)NCCCc2ccccc2Cl)c1.Cl [TECALCET HYDROCHLORIDE]", "%", 63],
  ["Cc1cc(C)cc(-c2cnc3cc(Cl)c(-c4cccc(O)c4)cc3c2OCCCN)c1", "%", 46],
  ["C[C@@H](NCCCc1cccc(C(F)(F)F)c1)c1cccc2ccccc12.Cl [CINACALCET HYDROCHLORIDE]", "%", 59]
]}
